# TARGET OF ASSAY: Glutathione reductase, mitochondrial (Homo sapiens, UniProt P00390)
# Sequence (P00390 whole entry): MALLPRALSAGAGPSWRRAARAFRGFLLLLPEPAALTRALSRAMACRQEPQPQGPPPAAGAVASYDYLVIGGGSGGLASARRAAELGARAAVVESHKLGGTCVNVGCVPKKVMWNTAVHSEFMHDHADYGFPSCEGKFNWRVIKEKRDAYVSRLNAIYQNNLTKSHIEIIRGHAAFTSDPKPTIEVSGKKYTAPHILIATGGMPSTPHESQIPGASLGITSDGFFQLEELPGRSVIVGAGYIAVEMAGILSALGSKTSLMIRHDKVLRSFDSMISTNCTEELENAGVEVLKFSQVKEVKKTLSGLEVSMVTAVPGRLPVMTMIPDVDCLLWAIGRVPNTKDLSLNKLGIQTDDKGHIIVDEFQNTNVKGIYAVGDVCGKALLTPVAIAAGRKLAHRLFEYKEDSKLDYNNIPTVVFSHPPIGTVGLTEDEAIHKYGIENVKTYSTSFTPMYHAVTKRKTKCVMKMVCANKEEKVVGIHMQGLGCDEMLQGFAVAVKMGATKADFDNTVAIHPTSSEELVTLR
# MEASUREMENT PROTOCOL: Inhibitory activity against human glutathione reductase in presence of 100 uM GSSG
pIC50: −log10 of the molar value.

[
  {
    "SMILES RECORD": "O=C(O)Cn1c(=O)nc2n(-c3cc(C(F)(F)F)cc(C(F)(F)F)c3)c3ccccc3nc-2c1=O",
    "COMPARISON SYMBOL": "=",
    "pIC50": 4.60
  },
  {
    "SMILES RECORD": "O=c1nc2n(-c3cc(Cl)cc(Cl)c3)c3ccccc3nc-2c(=O)[nH]1",
    "COMPARISON SYMBOL": ">",
    "pIC50": 6.00
  },
  {
    "SMILES RECORD": "Cn1c(=O)nc2n(-c3ccncc3)c3ccccc3nc-2c1=O",
    "COMPARISON SYMBOL": "=",
    "pIC50": 5.52
  },
  {
    "SMILES RECORD": "Cn1c(=O)nc2n(-c3c(F)c(F)c(F)c(F)c3F)c3ccccc3nc-2c1=O",
    "COMPARISON SYMBOL": ">",
    "pIC50": 6.00
  },
  {
    "SMILES RECORD": "O=c1nc2n(-c3c(F)c(F)c(F)c(F)c3F)c3ccccc3nc-2c(=O)[nH]1",
    "COMPARISON SYMBOL": "=",
    "pIC50": 5.46
  },
  {
    "SMILES RECORD": "CCOC(=O)Cn1c(=O)nc2n(-c3cc(C(F)(F)F)cc(C(F)(F)F)c3)c3ccccc3nc-2c1=O",
    "COMPARISON SYMBOL": "=",
    "pIC50": 4.00
  },
  {
    "SMILES RECORD": "Cn1c(=O)nc2n(-c3cccc(C(F)(F)F)c3)c3ccccc3nc-2c1=O",
    "COMPARISON SYMBOL": "=",
    "pIC50": 6.00
  },
  {
    "SMILES RECORD": "CCOC(=O)Cn1c(=O)nc2n(-c3cccc(C(F)(F)F)c3)c3ccccc3nc-2c1=O",
    "COMPARISON SYMBOL": "=",
    "pIC50": 5.10
  },
  {
    "SMILES RECORD": "O=c1nc2n(-c3ccc(Cl)cc3)c3ccccc3nc-2c(=O)[nH]1",
    "COMPARISON SYMBOL": ">",
    "pIC50": 6.00
  },
  {
    "SMILES RECORD": "Cn1c(=O)nc2n(-c3cccc4ccccc34)c3ccccc3nc-2c1=O",
    "COMPARISON SYMBOL": "=",
    "pIC50": 5.70
  },
  {
    "SMILES RECORD": "Cn1c(=O)nc2n(-c3cccc4cc5ccccc5cc34)c3ccccc3nc-2c1=O",
    "COMPARISON SYMBOL": "=",
    "pIC50": 5.40
  }
]
